List of IC50 values.
Species on record: Homo sapiens
testProtocol: Inhibitory concentration required to inhibit human complement induced hemolysis by 50%
Type: functional, organism-based
Please reply with the bare figure in µM and do not write the unit itself.

COc1ccc(C(=O)O)c2c1C[C@](C)(C1CC[C@](C)(O)[C@H](O)C1)O2 (stereo partly drawn)    1600

Now for the compound whose IC50 we want.
Request: Reported IC50 for CC1=CCC([C@]2(C)Cc3c(O)ccc(C(=O)O)c3O2)CC1 (stereo partly drawn) : what is it?
Response: 2400

====

testProtocol: Intrinsic Lytic Activity required to cause 50% hemolysis in the absence of complement; Not bioassayed
Assay type: functional, Ovis aries
readoutName: EC50

A selection of reference data follows.
CC1=CCC([C@]2(C)Cc3c(O)ccc(C(=O)O)c3O2)CC1 (stereo not given in full)    Not bioassayed
CC1=CCC([C@@]2(C)Cc3c(O)ccc(C(=O)O)c3O2)CC1 (stereo not given in full)    Not bioassayed
COc1ccc(C(=O)O)c2c1C[C@](C)(C1CC=C(C)CC1)O2 (stereo not given in full)    Not bioassayed
COc1ccc(C(=O)O)c2c1C[C@](C)(C1CC[C@](C)(O)[C@H](O)C1)O2 (stereo not given in full)    Not bioassayed

# next molecule below
Request: What does the record list as EC50 for COc1ccc(C(=O)O)c2c1C[C@@](C)(C1CC=C(C)CC1)O2 (stereo not given in full) ?
Response: Not bioassayed
